Origin of values: ChEMBL document CHEMBL4483862

System: Plasmodium berghei
Test: Luciferase/luciferin-expressing antifolate-resistant parasites were used to infect a culture of HepG2 cells that were pre-incubated with compounds. Infected hepatocytes emit light due to the luciferase reaction. Assay results are presented as the percent inhibition of light emission compared to control. […]
Format: functional
Conditions: sporozoite, PBLUC_HILL_SLOPE 2.13, PBLUC_R_SQUARED 0.733, read-out: LUCIFERASE INFECTION ASSAY - IC50
reported.endpoint: IC50
Units required after the number.

Q: Bench note: what IC50 did COc1ccc(-c2cnc3cnc(-c4cccnc4)cn23)cc1 show?
A: 1700 nM

----------
System: Plasmodium berghei
Assay: Luciferase/luciferin-expressing antifolate-resistant parasites were used to infect a culture of HepG2 cells that were pre-incubated with compounds. Infected hepatocytes emit light due to the luciferase reaction. Assay results are presented as the percent inhibition of light emission compared to control. […]
Type: functional
Conditions: sporozoite, HEPG2TOX_HILL_SLOPE 2.27, HEPG2TOX_R_SQUARED 0.924, PBLUC_HILL_SLOPE 9.94, PBLUC_R_SQUARED 0.658, read-out: LUCIFERASE INFECTION ASSAY - IC50
reported.endpoint: pIC50
Lab note: report pIC50 as minus log10 of the concentration in molar units, number only.

Q: Reported pIC50, molecule CCOc1ccccc1NC(=O)C(NCc1ccc(OC(F)F)cc1)c1ccccc1 (stereo unspecified) : ____
A: 5.44

----------
Tested on: Plasmodium berghei
Experiment: Luciferase/luciferin-expressing antifolate-resistant parasites were used to infect a culture of HepG2 cells that were pre-incubated with compounds. Infected hepatocytes emit light due to the luciferase reaction. Assay results are presented as the percent inhibition of light emission compared to control. […]
Format: functional
Settings: sporozoite, HEPG2TOX_HILL_SLOPE 13, HEPG2TOX_R_SQUARED 0.448, PBLUC_HILL_SLOPE 2.82, PBLUC_R_SQUARED 0.324, read-out: LUCIFERASE INFECTION ASSAY - IC50
reported.endpoint: pIC50
In simple prose, pIC50 is minus the logarithm base ten of a concentration in moles per litre.

Q: // query pIC50 value for entry O=C(Nc1ccc(OC(F)(F)F)cc1)c1ccc2c(c1)no[n+]2[O-]
A: 5.44

----------
Tested on: Plasmodium berghei
Assay: Luciferase/luciferin-expressing antifolate-resistant parasites were used to infect a culture of HepG2 cells that were pre-incubated with compounds. Infected hepatocytes emit light due to the luciferase reaction. Assay results are presented as the percent inhibition of light emission compared to control. […]
Type: functional
Conditions: sporozoite, PBLUC_HILL_SLOPE 14.7, PBLUC_R_SQUARED 0.597, read-out: LUCIFERASE INFECTION ASSAY - IC50
reported.endpoint: IC50 (µM)
Field format: number, assumed µM, no unit text.

Q: Given CCn1c(NC(=O)CCc2ccc3c(c2)OCCO3)nc2ccccc21 , state its recorded IC50.
A: 9.02

----------
System: Plasmodium berghei
Assay: Luciferase/luciferin-expressing antifolate-resistant parasites were used to infect a culture of HepG2 cells that were pre-incubated with compounds. Infected hepatocytes emit light due to the luciferase reaction. Assay results are presented as the percent inhibition of light emission compared to control. […]
Assay type: functional
Conditions: sporozoite, read-out: LUCIFERASE INFECTION ASSAY - IC90
Recorded IC90, one value per entry.

CCN(CC)S(=O)(=O)c1cc(NC(=O)C2CCN(c3ncnc4sc(C)c(C)c34)CC2)ccc1Cl    3.98 µM

Q: For the molecule shown here, N=C(NS(=O)(=O)c1cc(C(F)(F)F)cc(C(F)(F)F)c1)c1ccc(Cl)cc1 , give the reported IC90.
A: > 7.66 µM

Q: Fill in the blank: the reported IC90 of Cc1cc2ccccn2c1C(=O)c1cc2c(C)nn(-c3ccccc3)c2s1 is ____.
A: > 10 µM
